- experimental-system: hAT1R (Homo sapiens)
- Sequence (P30556 whole entry): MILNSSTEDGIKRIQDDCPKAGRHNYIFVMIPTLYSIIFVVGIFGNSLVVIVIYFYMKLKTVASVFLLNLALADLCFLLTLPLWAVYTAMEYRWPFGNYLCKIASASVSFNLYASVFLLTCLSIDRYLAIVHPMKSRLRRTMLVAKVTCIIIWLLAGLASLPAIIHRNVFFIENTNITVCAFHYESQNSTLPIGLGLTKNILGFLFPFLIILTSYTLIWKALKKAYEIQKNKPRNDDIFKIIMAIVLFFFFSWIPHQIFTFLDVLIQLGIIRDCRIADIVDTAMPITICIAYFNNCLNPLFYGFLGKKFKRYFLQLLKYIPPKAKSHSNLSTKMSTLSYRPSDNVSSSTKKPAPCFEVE
- protocol: BRET β-arrestin2 biosensor assay, higher receptor expression (hAT1R 5 ng/well), HEK293 cells
- Assay type: cell-based
- measurement-context: High AT1R Expression
pEC50 for assorted compounds
Scale for pEC50: -log10 of concentration given in mol/L; no unit attached.

Example compounds with recorded pEC50:
compound="CCc1nc2c(C)cc(C)nc2n1Cc1ccc(-c2cc(C3CCCCN3)ccc2-c2nn[nH]n2)cc1 (single isomer, unassigned)" assay_value=5.95
compound=CCCCC(=O)N(Cc1ccc(-c2cc(-c3ccccc3)ccc2-c2nn[nH]n2)cc1)C1(C(=O)O)CCC1 assay_value=4.89
compound=CCc1nc2c(C)cc(C)nc2n1Cc1ccc(-c2cc(-c3ccccc3)ccc2-c2noc(=O)[nH]2)cc1 assay_value=8.29
compound=CCCc1nc(CC)c(C(=O)O)n1Cc1ccc(-c2cc(-c3ccccc3)ccc2-c2noc(=O)[nH]2)cc1 assay_value=8.14
compound=CCCCC1=NC2(CCCC2)C(=O)N1Cc1ccc(-c2cc(Oc3ccccc3)ccc2-c2nnn[nH]2)cc1 assay_value=7.25

pEC50 on hAT1R (Homo sapiens) for CCCCc1ncc(C(=O)NCC)n1Cc1ccc(-c2cc(-c3ccccc3)ccc2-c2nn[nH]n2)cc1 is 7.25

pEC50 on hAT1R (Homo sapiens) for CCc1nc2c(C)cc(C)nc2n1Cc1ccc(-c2cc(Oc3cc(N)ccn3)ccc2-c2nn[nH]n2)cc1 is 8.10

pEC50 on hAT1R (Homo sapiens) for CCCCC1=NC2(CCCC2)C(=O)N1Cc1ccc(-c2cc(-c3ccccc3)ccc2-c2nn[nH]n2)nc1 is 4.86

pEC50 on hAT1R (Homo sapiens) for CCCCC(=O)N(Cc1ccc(-c2cc(-c3cccnc3OC)ccc2-c2nn[nH]n2)cc1)C1(C(=O)O)CCCCC1 is 7.17

pEC50 on hAT1R (Homo sapiens) for CCCCC1=NC2(CCCC2)C(=O)N1Cc1ccc(-c2cc(-c3ccc(OC(F)(F)F)cc3)ccc2-c2nn[nH]n2)cc1 is 6.80

pEC50 on hAT1R (Homo sapiens) for CCCCC(=O)N(Cc1ccc(-c2cc(-c3ccc(NC(C)=O)cc3)ccc2-c2nn[nH]n2)cc1)[C@H](C(=O)O)C(C)C is 4.55

pEC50 on hAT1R (Homo sapiens) for CCCCC(=O)N(Cc1ccc(-c2cc(-c3cccc(C)n3)ccc2-c2nn[nH]n2)cc1)C1(C(=O)O)CCCCC1 is 6.82

pEC50 on hAT1R (Homo sapiens) for CCCCOC(=O)NS(=O)(=O)c1sc(-c2cccnc2OC)cc1-c1ccc(Cn2c(CC)nc3c(C)cc(C)nc32)cn1 is 7.39

pEC50 on hAT1R (Homo sapiens) for CCCCC(=O)N(Cc1ccc(-c2cc(-c3ccccn3)ccc2-c2nn[nH]n2)cc1)[C@H](C(=O)O)C(C)C is 6.81

* * *

- experimental-system: AGTR1 (Homo sapiens)
- Construct: host or cells: Pathunter CHO-K1 AGTR1 β-arrestin cell line (CHO-K1)
- protocol: DiscoveRx β-arrestin2 recruitment assay (enzyme complementation, Pathunter CHO-K1 AGTR1 β-arrestin cell line)
- Format: cell-based
- measurement-context: DiscoveRx β-arrestin2 recruitment
Output: class label from EC50. Mapping: bottom range = under 10 nM, center range = from 10 nM up to 30 nM, top range = 30 nM and over

Please review the entries below; each comes with its answer.
compound=CCCCC(=O)N(Cc1ccc(-c2cc(-c3cccnc3OC)ccc2-c2nn[nH]n2)cc1)C1(C(=O)O)CCCCC1 category="top range"
compound=CCc1nc2c(C)cc(C)nc2n1Cc1ccc(-c2cc(N3C(=O)c4ccccc4C3=O)ccc2-c2nn[nH]n2)cc1 category="top range"
compound=CCc1nc2c(C)cc(C)nc2n1Cc1ccc(-c2cc(Nc3ccc(F)cc3)ccc2-c2nn[nH]n2)cc1 category="center range"
compound=CCCCC1=NC2(CCCC2)C(=O)N1Cc1ccc(-c2cc(-c3ccccc3)ccc2-c2nn[nH]n2)cn1 category="bottom range"
compound=CCCCc1ncc(C(=O)NCCOC(C)C)n1Cc1ccc(-c2cc(-c3ccccc3)ccc2-c2nn[nH]n2)cc1 category="bottom range"

Place this compound in its band: CCc1nc2c(C)cc(C)nc2n1Cc1ccc(-c2cc(-c3ccc(F)cc3F)ccc2-c2nn[nH]n2)cc1
bottom range

Place this compound in its band: CCCCC1=NC2(CCCC2)C(=O)N1Cc1ccc(-c2cc(-c3cc(C)ccn3)ccc2-c2nn[nH]n2)cc1
center range

Place this compound in its band: CCCCc1nc(Cl)c(C(=O)O)n1Cc1ccc(-c2cc(-n3ccc4ccccc43)ccc2-c2noc(=O)[nH]2)cc1
center range

Place this compound in its band: CCc1nc2c(C)cc(C)nc2n1Cc1ccc(-c2cc(-c3cccnc3)ccc2-c2nn[nH]n2)cc1
bottom range
